Target system: Adrenergic receptor alpha-2 (Rattus norvegicus, UniProt P22086+P19328+P22909)
Assay name: Antagonism of rat alpha-2 adrenergic receptor from rat vas deferens
Format: functional
Assay metric: pA2

Molecule smiles	Assay metric	Data value
CS(=O)(=O)NCCN([C@@H]1CCN2CCc3ccccc3[C@@H]2C1)S(=O)(=O)c1ccc(F)cc1	pA2	7.7
CS(=O)(=O)N(CCNS(=O)(=O)CCl)[C@@H]1CCN2CCc3ccccc3[C@@H]2C1	pA2	8.1
Cc1cccc(S(=O)(=O)N(CCNS(C)(=O)=O)[C@@H]2CCN3CCc4ccccc4[C@@H]3C2)c1	pA2	8
CCCS(=O)(=O)NCCN([C@@H]1CCN2CCc3ccccc3[C@@H]2C1)S(C)(=O)=O	pA2	6.7
CS(=O)(=O)NCCCN([C@@H]1CCN2CCc3ccccc3[C@@H]2C1)S(C)(=O)=O	pA2	5.7
CN(CCN([C@@H]1CCN2CCc3ccccc3[C@@H]2C1)S(C)(=O)=O)S(C)(=O)=O	pA2	6.03
CS(=O)(=O)N(CCNS(=O)(=O)C(F)(F)F)[C@@H]1CCN2CCc3ccccc3[C@@H]2C1	pA2	6.4
CS(=O)(=O)N(CCNS(=O)(=O)c1ccccc1)[C@@H]1CCN2CCc3ccccc3[C@@H]2C1	pA2	5.9

----------
Target system: Adrenergic receptor alpha (Rattus norvegicus) (UniProt P15823+P23944+P43140+P22086+P19328+P22909)
Assay name: Ratio of pA2 values at alpha-1 and alpha-2 adrenergic receptors.
Assay type: protein assay
Assay metric: Ratio

Take a look at these entries with their results.
Molecule smiles	Assay metric	Data value
CCCS(=O)(=O)N(CCNS(C)(=O)=O)[C@@H]1CCN2CCc3ccccc3[C@@H]2C1	Ratio	310
CS(=O)(=O)NCCN([C@@H]1CCN2CCc3ccccc3[C@@H]2C1)S(C)(=O)=O	Ratio	410
CN(CCN([C@@H]1CCN2CCc3ccccc3[C@@H]2C1)S(C)(=O)=O)S(C)(=O)=O	Ratio	3
CCS(=O)(=O)NCCN([C@@H]1CCN2CCc3ccccc3[C@@H]2C1)S(C)(=O)=O	Ratio	120
CS(=O)(=O)NCCN([C@@H]1CCN2CCc3ccccc3[C@@H]2C1)S(=O)(=O)c1cccc([N+](=O)[O-])c1	Ratio	10

A. CCCS(=O)(=O)NCCN([C@@H]1CCN2CCc3ccccc3[C@@H]2C1)S(C)(=O)=O
B. CCCS(=O)(=O)N(C)[C@@H]1CCN2CCc3ccccc3[C@@H]2C1
C. CS(=O)(=O)NCCCN([C@@H]1CCN2CCc3ccccc3[C@@H]2C1)S(C)(=O)=O
hey, can you rank those molecules up there by Ratio? biggest number first please Respond with the label ranking, as requested.
B, A, C

Origin of measurements: ChEMBL document CHEMBL1124322
